target: T1, Histidine-tagged human CD40 protein (hCD40-His) (human, UniProt P25942 21-193); test: SPR, Biacore T200; antibody on Protein A chip, hCD40-His injected; 1:1 fit
T1 construct: not shown: histidine tag
T1 sequence (P25942 21-193 limits assumed): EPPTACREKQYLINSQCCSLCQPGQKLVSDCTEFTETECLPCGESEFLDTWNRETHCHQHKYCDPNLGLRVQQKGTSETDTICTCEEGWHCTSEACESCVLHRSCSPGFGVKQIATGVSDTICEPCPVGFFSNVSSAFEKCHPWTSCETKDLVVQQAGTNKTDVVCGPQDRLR
measurement-type: koff (s⁻¹)
Give just the numeric value; s⁻¹ need not be written.

Some entries whose results are on file:
>>> endpoint_result("4H6-H3K4-IgG4 (antibody, V domains shown, Humanized) VH: EVQLQESGPGLVKPSQTLSLTCTVSGDSVSSGYWNWIRKHPGKKLEYMGFISYSGSTYYTPSLKSRITISRDTSKNQFSLKLSSVTAADTAVYFCARFRRYDDGVDYWGQGTLVTVSS VL: DIQMTQSPSAMSASVGDRVTLTCRASHEISGYLSWIQQKPGGTIKRLINAASTLASGVPSRFSGSRSGTEYTLTISSLQPEDFADYYCLQYSSYPWTFGGGTKLEIK")
0.0282
>>> endpoint_result("6A7-H1K1-IgG4 (antibody, V domains shown, Humanized) VH: QVQLVQSGAEVKKPGASVKVSCKASGYTFISYYIYWVRQAPGQGLEWMGGINPRNGGTNFNEKFKSRVTLTVDTSISTAYMELSRLRSEDTAVYYCARHGNGVYWGQGTTVTVSS VL: DVVMTQSPLSLPVTLGQPASISCRSSQSLLHSNGNTYLHWFQQRPGQSPRHLIYQVSNRFSGVPDRFSGSGSGTDFTLKISRVEAEDVGVYYCSQTTHVPWTFGGGTKVEIK")
0.00571

Now for a further binder.
Can you share its koff? I mean this binder: 6A7-H3K3-IgG4 (antibody, V domains shown, Humanized) VH: QVQLVQSGAEVKKPGASVKVSCKASGYTFISYYIYWVRQAPGQGLEWIGGINPRNGGTNFNEKFKSRATLTVDTSISTAYMELSRLRSEDTAVYYCTRHGNGVYWGQGTTVTVSS VL: DVVMTQSPLSLPVTLGDPASISCRSSQSLLHSNGNTYLHWYQQRPGQSPNHLIYQVSNRFSGVPDRFSGSGSGTDFTLKISRVEAEDVGVYFCSQTTHVPWTFGGGTKLEIK
0.000356
